Hello, the source for this data is PubChem BioAssay AID2060893, in case you need it.

Test system: K86415-001-R-J1-PDC complex spheroids, viability
test_method_notes: Anticancer human tumor K86415-001-R-J1-PDC patient-derived lung adenocarcinoma cell line growth inhibition [RAS]
cond: second compound 0.00949 µM; first compound 0.0949 µM; stronger effect = lower value
readout: viability, T/C (%)
Provide only the numeric value, understood in %.

See these solved cases before continuing.
CC1(C)CCC(Nc2ncc(C(F)(F)F)c(-c3c[nH]c4c(P(C)(C)=O)c(C#N)ccc34)n2)CN1 (centres undefined) + CCn1c(-c2cc(N3CCN(C)CC3)cnc2C(C)OC)c2c3cc(ccc31)-c1csc(n1)CC(NC(=O)C1CC1C)C(=O)N1CCCC(N1)C(=O)OCC(C)(C)C2	12.4
CC1(C)CCC(Nc2ncc(C(F)(F)F)c(-c3c[nH]c4c(P(C)(C)=O)c(C#N)ccc34)n2)CN1 (centres undefined) + CCn1c(-c2cccnc2C(C)OC)c2c3cc(ccc31)N1CCOC(CC(NC(=O)C(C(C)C)N(C)C(=O)C3(F)CCN(C(=O)C#CC(C)(C)N(C)C)CC3)C(=O)N3CCCC(N3)C(=O)OCC(C)(C)C2)C1	20.1
CCc1c2c(nc3ccc(O)cc13)-c1cc3c(c(=O)n1C2)COC(=O)[C@]3(O)CC + CCn1c(-c2cc(N3CCN(C)CC3)cnc2C(C)OC)c2c3cc(ccc31)-c1csc(n1)CC(NC(=O)C1CC1C)C(=O)N1CCCC(N1)C(=O)OCC(C)(C)C2	5.09

API: the following record is the query input.
Req: # lookup: viability, T/C of CCc1c2c(nc3ccc(O)cc13)-c1cc3c(c(=O)n1C2)COC(=O)[C@]3(O)CC + CCn1c(-c2cccnc2C(C)OC)c2c3cc(ccc31)N1CCOC(CC(NC(=O)C(C(C)C)N(C)C(=O)C3(F)CCN(C(=O)C#CC(C)(C)N(C)C)CC3)C(=O)N3CCCC(N3)C(=O)OCC(C)(C)C2)C1
Resp: 7.47

###

Listed here are molecules together with their documented viability, T/C.
Test system: K86415-001-R-J1-PDC complex spheroids, viability
test_method_notes: Anticancer human tumor K86415-001-R-J1-PDC cell line growth inhibition [RAS];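 note: spheroids exposed to agents for seven days before readout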
cond: second compound 10 µM; first compound 0.01 µM; stronger effect = lower value
Provide only the numeric value, understood in %.

See these solved cases before continuing.
C=CC(=O)Nc1cc(Nc2nccc(-c3cn(C)c4ccccc34)n2)c(OC)cc1N(C)CCN(C)C + C#Cc1c(F)ccc2cc(O)cc(-c3ncc4c(N5CC6CCC(C5)N6)nc(OCC56CCCN5CC(F)C6)nc4c3F)c12	16.9
CC(C)n1nc(-c2ccc3oc(N)nc3c2)c2c(N)ncnc21 + C#Cc1c(F)ccc2cc(O)cc(-c3ncc4c(N5CC6CCC(C5)N6)nc(OCC56CCCN5CC(F)C6)nc4c3F)c12	19.3
C=CC(=O)N1CCN(c2nc(OCC3CCCN3C)nc3c(F)c(-c4nc(N)cc(C)c4C(F)(F)F)c(Cl)cc23)C(C)C1 (stereo unspecified) + C#Cc1c(F)ccc2cc(O)cc(-c3ncc4c(N5CC6CCC(C5)N6)nc(OCC56CCCN5CC(F)C6)nc4c3F)c12	12.9
CCN1CCN(Cc2ccc(Nc3ncc(F)c(-c4cc(F)c5nc(C)n(C(C)C)c5c4)n3)nc2)CC1 + C#Cc1c(F)ccc2cc(O)cc(-c3ncc4c(N5CC6CCC(C5)N6)nc(OCC56CCCN5CC(F)C6)nc4c3F)c12	15.6
Nc1ccn(C2OC(CO)C(O)C2(F)F)c(=O)n1 (stereo unspecified) + C#Cc1c(F)ccc2cc(O)cc(-c3ncc4c(N5CC6CCC(C5)N6)nc(OCC56CCCN5CC(F)C6)nc4c3F)c12	17

Req: # lookup: viability, T/C of O=C(c1ccc(F)c(F)c1Nc1ccc(I)cc1F)N1CC(O)([C@@H]2CCCCN2)C1 + C#Cc1c(F)ccc2cc(O)cc(-c3ncc4c(N5CC6CCC(C5)N6)nc(OCC56CCCN5CC(F)C6)nc4c3F)c12
Resp: 13.1

###

Listed here are molecules together with their documented viability, T/C.
System: K86415-001-R-J1-PDC complex spheroids, viability
test_method_notes: Anticancer human tumor K86415-001-R-J1-PDC cell line growth inhibition [RAS];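 note: spheroids exposed to agents for seven days before readout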
cond: second compound 0.0316 µM; first compound 1 µM; stronger effect = lower value

C=CC(=O)Nc1cc(Nc2nccc(-c3cn(C)c4ccccc34)n2)c(OC)cc1N(C)CCN(C)C + C#Cc1c(F)ccc2cc(O)cc(-c3ncc4c(N5CC6CCC(C5)N6)nc(OCC56CCCN5CC(F)C6)nc4c3F)c12	38.9%
CC(Nc1ccc2c(c1)OCCn1cc(N3C(=O)OCC3C(F)F)nc1-2)C(N)=O (stereo not drawn) + C=CC(=O)N1CCN(c2nc(OCC3CCCN3C)nc3c(F)c(-c4nc(N)cc(C)c4C(F)(F)F)c(Cl)cc23)C(C)C1	3.55%

API: the following record is the query input.
Req: # lookup: viability, T/C of C=CC(=O)N1CCN(c2nc(OCC3CCCN3C)nc3c(F)c(-c4nc(N)cc(C)c4C(F)(F)F)c(Cl)cc23)C(C)C1 (stereo not drawn) + C#Cc1c(F)ccc2cc(O)cc(-c3ncc4c(N5CC6CCC(C5)N6)nc(OCC56CCCN5CC(F)C6)nc4c3F)c12
Resp: 12%

###

Test system: K86415-001-R-J1-PDC complex spheroids, viability
test_method_notes: Anticancer human tumor K86415-001-R-J1-PDC cell line growth inhibition [RAS];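 note: spheroids exposed to agents for seven days before readout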
cond: second compound 1 µM; first compound 0.00316 µM; stronger effect = lower value
Excerpt: RAS pathway inhibitors in Combinations in Complex Spheroids A high-throughput screen of multi-cell type tumor spheroids was designed to identify active combinations of RAS pathway inhibitors and targeted small molecules. Complex spheroids include a stromal component modeled by human endothelial cells (HUVEC) and fibroblasts modeled by human mesenchymal stem cells (MSCs). […] Compounds. […] If the clinical Cmax for an agent had not been determined, the highest concentration tested was 10 microM. […]
readout: viability, T/C (%)
Provide only the numeric value, understood in %.

Req: # lookup: viability, T/C of O=C(c1ccc(F)c(F)c1Nc1ccc(I)cc1F)N1CC(O)([C@@H]2CCCCN2)C1 + C#Cc1c(F)ccc2cc(O)cc(-c3ncc4c(N5CC6CCC(C5)N6)nc(OCC56CCCN5CC(F)C6)nc4c3F)c12
Resp: 61.2

Req: # lookup: viability, T/C of Nc1ccn(C2OC(CO)C(O)C2(F)F)c(=O)n1 (stereo unspecified) + C=CC(=O)N1CCN(c2nc(OCC3CCCN3C)nc3c(F)c(-c4nc(N)cc(C)c4C(F)(F)F)c(Cl)cc23)C(C)C1
Resp: 10.2

Req: # lookup: viability, T/C of C=CC(=O)Nc1cc(Nc2nccc(-c3cn(C)c4ccccc34)n2)c(OC)cc1N(C)CCN(C)C + C#Cc1c(F)ccc2cc(O)cc(-c3ncc4c(N5CC6CCC(C5)N6)nc(OCC56CCCN5CC(F)C6)nc4c3F)c12
Resp: 61.1

Req: # lookup: viability, T/C of CC(C)n1nc(-c2ccc3oc(N)nc3c2)c2c(N)ncnc21 + C=CC(=O)N1CCN(c2nc(OCC3CCCN3C)nc3c(F)c(-c4nc(N)cc(C)c4C(F)(F)F)c(Cl)cc23)C(C)C1
Resp: 8.04

Req: # lookup: viability, T/C of Nc1ccn(C2OC(CO)C(O)C2(F)F)c(=O)n1 (stereo unspecified) + C#Cc1c(F)ccc2cc(O)cc(-c3ncc4c(N5CC6CCC(C5)N6)nc(OCC56CCCN5CC(F)C6)nc4c3F)c12
Resp: 79.1

Req: # lookup: viability, T/C of C=CC(=O)Nc1cc(Nc2nccc(-c3cn(C)c4ccccc34)n2)c(OC)cc1N(C)CCN(C)C + C=CC(=O)N1CCN(c2nc(OCC3CCCN3C)nc3c(F)c(-c4nc(N)cc(C)c4C(F)(F)F)c(Cl)cc23)C(C)C1
Resp: 11

###

System: K86415-001-R-J1-PDC complex spheroids, viability
test_method_notes: Anticancer human tumor K86415-001-R-J1-PDC cell line growth inhibition [RAS]; active means viability on the fitted dose curve at most 10% of control; inactive means the rest;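 note: spheroids exposed to agents for seven days before readout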
cond: second compound 0.316 µM; first compound 0.00316 µM
Write down the outcome that applies. Available outcomes: active, inactive

Req: Name the outcome recorded for CCN1CCN(Cc2ccc(Nc3ncc(F)c(-c4cc(F)c5nc(C)n(C(C)C)c5c4)n3)nc2)CC1 + C=CC(=O)N1CCN(c2nc(OCC3CCCN3C)nc3c(F)c(-c4nc(N)cc(C)c4C(F)(F)F)c(Cl)cc23)C(C)C1 in the assay.
Resp: inactive

Req: Name the outcome recorded for C=CC(=O)Nc1cc(Nc2nccc(-c3cn(C)c4ccccc34)n2)c(OC)cc1N(C)CCN(C)C + C#Cc1c(F)ccc2cc(O)cc(-c3ncc4c(N5CC6CCC(C5)N6)nc(OCC56CCCN5CC(F)C6)nc4c3F)c12 in the assay.
Resp: inactive

###

Listed here are compounds together with their documented pIC50.
System: K86415-001-R-J1-PDC complex spheroids, viability
test_method_notes: Anticancer human tumor K86415-001-R-J1-PDC cell line growth inhibition [RAS];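 note: spheroids exposed to agents for seven days before readout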
cond: curve of first compound; second compound 0.1 µM
Please note pIC50 is a logarithmic value: minus log10 of concentration in mol/L. Answer with that number alone.

C=CC(=O)Nc1cc(Nc2nccc(-c3cn(C)c4ccccc34)n2)c(OC)cc1N(C)CCN(C)C + C#Cc1c(F)ccc2cc(O)cc(-c3ncc4c(N5CC6CCC(C5)N6)nc(OCC56CCCN5CC(F)C6)nc4c3F)c12	6.54

API: the following record is the query input.
Req: # lookup: pIC50 of Cc1nc(N2CCC3(CC2)COC(C)C3N)c(CO)nc1Sc1ccnc(N)c1Cl (stereo not given) + C#Cc1c(F)ccc2cc(O)cc(-c3ncc4c(N5CC6CCC(C5)N6)nc(OCC56CCCN5CC(F)C6)nc4c3F)c12
Resp: 6.98
